Listed here: items and their measured pKd.
Target: T1, recombinant IL-3Rα ectodomain (human, UniProt P26951 19-305)
T1 construct: extracellular domain; also called recombinant IL-3Ra; biotinylated-IL-3Rα ectodomain
T1 sequence (looked up): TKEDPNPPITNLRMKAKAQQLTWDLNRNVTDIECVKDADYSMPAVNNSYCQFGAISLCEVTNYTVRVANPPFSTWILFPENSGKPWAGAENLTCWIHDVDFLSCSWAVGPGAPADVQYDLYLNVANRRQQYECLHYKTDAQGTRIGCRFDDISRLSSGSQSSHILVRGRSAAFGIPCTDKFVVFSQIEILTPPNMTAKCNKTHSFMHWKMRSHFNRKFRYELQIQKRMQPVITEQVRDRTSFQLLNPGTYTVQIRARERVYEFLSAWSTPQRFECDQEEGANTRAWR
Test: SPR ProteOn, immobilised IL-3Rα ectodomain
pKd: −log10 of the molar value.
measured.quantity: pKd

* 55B04 (VHH) VHH: EVQLVESGGGLVQPGGSLRLSCAASGINFRFNSMGWWRRRAPGKEREWVAAITSGDITNYRDSVRGRFTISRDNVKNTVYLQMNTLKLEDTAVYYCNTFPPIADYWGLGTQVTVSS | 7.80
* 55F03 (VHH) VHH: EVQLVESGGGLVQAGGPLRLSCAASGRTFSSYVMGWFRQAPGKEREFVAAIYWSNGKTQYTDSVKGRFTISGDNAKNTVYLQMNSLNPEDTAVYYCVADKDETGFRTLPIAYDYWGLGTQVTVSS | 6.94
* 51D09 (VHH) VHH: EVQLVESGGGLVQPGGSLRLSCAASGSIFSGNTMGWYRQAPGKQRELVAAISSGGSTDYADSVKGRFTISRDNSKNTVYLQMNSLRPEDTAVYYCNAAILLYRLYGYEEGDYWGLGTLVTVSS | 7.87
